# measured on: Voltage-dependent calcium channel gamma-2 subunit (Mus musculus) + Glutamate receptor 2 (Rattus norvegicus) (UniProt O88602+P19491)
# Sequence (O88602 whole entry, looked up): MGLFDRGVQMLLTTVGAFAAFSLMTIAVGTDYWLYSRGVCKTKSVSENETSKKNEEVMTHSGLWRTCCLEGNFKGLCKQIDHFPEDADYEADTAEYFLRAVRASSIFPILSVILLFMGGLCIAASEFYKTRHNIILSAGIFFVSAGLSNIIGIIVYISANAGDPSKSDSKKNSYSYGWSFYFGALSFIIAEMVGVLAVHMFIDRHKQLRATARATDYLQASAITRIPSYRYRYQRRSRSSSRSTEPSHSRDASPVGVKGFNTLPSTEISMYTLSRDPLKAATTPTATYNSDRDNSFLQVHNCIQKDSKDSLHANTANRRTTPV
# Sequence (P19491 whole entry, looked up): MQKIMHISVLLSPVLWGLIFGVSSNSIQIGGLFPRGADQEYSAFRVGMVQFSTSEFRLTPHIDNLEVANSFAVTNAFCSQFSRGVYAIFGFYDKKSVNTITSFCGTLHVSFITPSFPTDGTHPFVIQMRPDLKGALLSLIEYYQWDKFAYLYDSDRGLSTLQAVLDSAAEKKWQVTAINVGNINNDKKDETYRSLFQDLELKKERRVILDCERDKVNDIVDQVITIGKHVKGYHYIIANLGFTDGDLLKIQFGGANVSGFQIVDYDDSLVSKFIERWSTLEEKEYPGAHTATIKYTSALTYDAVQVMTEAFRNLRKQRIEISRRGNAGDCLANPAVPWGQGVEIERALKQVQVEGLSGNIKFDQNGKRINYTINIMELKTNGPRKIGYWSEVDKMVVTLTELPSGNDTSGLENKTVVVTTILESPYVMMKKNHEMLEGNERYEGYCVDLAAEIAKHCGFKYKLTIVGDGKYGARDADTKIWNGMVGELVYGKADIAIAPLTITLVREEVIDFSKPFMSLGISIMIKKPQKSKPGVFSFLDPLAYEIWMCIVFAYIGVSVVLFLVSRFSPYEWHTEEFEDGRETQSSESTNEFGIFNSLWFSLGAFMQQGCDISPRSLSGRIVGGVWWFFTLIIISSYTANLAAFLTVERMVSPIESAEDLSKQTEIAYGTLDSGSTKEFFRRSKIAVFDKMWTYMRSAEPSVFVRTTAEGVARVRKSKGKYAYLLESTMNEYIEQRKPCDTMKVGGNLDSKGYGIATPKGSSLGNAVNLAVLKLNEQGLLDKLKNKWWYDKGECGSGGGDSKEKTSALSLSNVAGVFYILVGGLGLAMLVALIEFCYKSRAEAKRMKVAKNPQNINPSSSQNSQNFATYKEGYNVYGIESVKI
# assay remarks: modulators of GluA2-stargazin AMPA receptor complexes, primary screen, cell-based, membrane potential dye (AID 1259245)
# condition description: HEK293 GluA2+stargazin, membrane potential dye (FDSS), glutamate EC50, at 30 µM, hits were called plate by plate, in both directions; measured here: glutamate response slope, % max
The whole screen tested about 40,000 compounds, of which about 1,400 (3.5%) were called active. This is one part of a sample in which actives are shown more often than they occur.
endpoint name: glutamate slope, % of max (%)
# output: bare number, implied unit %

Worked examples follow.
{"molecule": "O=C(NCC(O)(c1ccccc1)C1CC1)c1ccccc1Br (stereo not drawn)", "readout units": "%", "result number": 40}
{"molecule": "CCSc1ccccc1C(=O)NCC(O)(c1ccccc1)C1CC1 (stereo not drawn)", "readout units": "%", "result number": 57.8}
{"molecule": "COc1ccc(S(=O)(=O)N2CCN(c3ccc4nncn4n3)CC2)cc1C", "readout units": "%", "result number": 44.4}
{"molecule": "CCCOc1ccc(N2CCN(C(=O)COc3ccc4ccccc4c3)CC2)nn1", "readout units": "%", "result number": 61.1}
{"molecule": "Cc1cccc(Nc2ccc(N3CCN(S(=O)(=O)c4cccs4)CC3)nn2)n1", "readout units": "%", "result number": 21.9}
{"molecule": "CCOc1ccc(-c2ccc(N3CCN(C(=O)c4ccc5nsnc5c4)CC3)nn2)cc1", "readout units": "%", "result number": 32.9}
{"molecule": "O=C(CCCS(=O)(=O)c1ccc(F)cc1)Nc1cccc2c1C(=O)NC2=O", "readout units": "%", "result number": 66.5}

Please give the measured glutamate slope, % of max for this molecule: O=C(NCc1ccccc1)N1CCN(c2ccc(-c3ccncc3)nn2)CC1
40.4

###

# measured on: Voltage-dependent calcium channel gamma-2 subunit (Mus musculus) + Glutamate receptor 2 (Rattus norvegicus) (UniProt O88602+P19491)
# assay remarks: modulators of GluA2-stargazin AMPA receptor complexes, primary screen, cell-based, membrane potential dye (AID 1259245)
# condition description: HEK293 GluA2+stargazin, membrane potential dye (FDSS), glutamate EC50, at 30 µM, hits were called plate by plate, in both directions
Screen size: about 40,000 compounds; about 1,400 (3.5%) were called active.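 The calls were made as follows: active = any of four per-well response measures lying three or more SD from its plate-wide compound average, in either direction; inactive = the rest, inconclusive results apart.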 Shown is part of a subset that was picked to be rich in actives.
Could you please pick one outcome from this set? active, inactive

Record excerpt, results attached:
{"compound": "O=C(CCc1ccccc1)NCCS(=O)(=O)N1CCN(Cc2ccccc2)CC1", "group label": "inactive"}
{"compound": "O=C(CCCS(=O)(=O)c1ccc(F)cc1)Nc1cccc2c1C(=O)NC2=O", "group label": "inactive"}
{"compound": "O=C(CCc1ccccc1)NCC1CCN(Cc2ccsc2)CC1", "group label": "active"}

I'd appreciate the recorded outcome for Cc1ccc(-n2ncc3c(=O)n(CC(=O)N4CCc5ccccc54)cnc32)cc1C from this test.
inactive

I would be grateful if you could indicate the recorded call for CCCN(CCC)S(=O)(=O)c1cc([N+](=O)[O-])ccc1C .
active

Please state the recorded outcome for this compound: O=C(NC1CCCCCC1)c1ccc(S(=O)(=O)c2ccccc2)nc1
inactive

For COCC(C)(O)CNC(=O)c1cc(C)oc1C (stereo not given) , what call appears in the results of this test?
inactive

Status in this test for Cc1ccccc1NC(=O)NC1(c2nc(-c3ccsc3)no2)CCCCC1 ?
inactive

So what was the verdict on COC(=O)c1cc(OC)c(OC)cc1NC(=O)c1cc(C)oc1C in this test?
inactive

// data source = PubChem BioAssay AID1259245
